For each of the compounds below, state its inhibition at 6 µM.
molecular target: human RORγt LBD (Homo sapiens); construct: expressed in transfected cells; assay: RORγt reporter assay (GAL4-RORγt LBD luciferase in HEK293T cells); assay type: cell-based; conditions: HEK-293T, read-out: RORγt reporter Assay, % inhibition @ 6 μM, HEK293T cells, 6 μM compound
Sequence (P51449 258-518): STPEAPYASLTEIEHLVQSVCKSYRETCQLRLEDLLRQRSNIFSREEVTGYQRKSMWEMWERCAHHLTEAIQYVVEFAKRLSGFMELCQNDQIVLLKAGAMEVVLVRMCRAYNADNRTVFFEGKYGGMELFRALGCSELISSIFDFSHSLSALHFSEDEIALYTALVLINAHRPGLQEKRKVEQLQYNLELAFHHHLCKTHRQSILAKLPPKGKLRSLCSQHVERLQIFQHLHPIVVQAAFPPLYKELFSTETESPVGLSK
Enter your answer as a number in %; do not include the unit.

Incoming: GET /values?readout=inhibition at 6 µM&system=human RORγt LBD (Homo sapiens)&item= COc1cccc(C(O)(c2ccc(Cl)nc2)c2ccc3nc(Cl)c(-c4ccccc4)c(Cl)c3c2)c1 (stereo not shown)
Outgoing: 103

Incoming: GET /values?readout=inhibition at 6 µM&system=human RORγt LBD (Homo sapiens)&item= [O-][n+]1cccc(C(O)(c2cccc(Cl)c2)c2ccc3nc(C(F)(F)F)c(-c4ccccc4)c(C(F)(F)F)c3c2)c1 (stereo not shown)
Outgoing: 103

Incoming: GET /values?readout=inhibition at 6 µM&system=human RORγt LBD (Homo sapiens)&item= COC(c1ccncc1)(c1ccc2nc(N(C)C)c(-c3ccccc3)c(Cl)c2c1)c1cncn1C (stereo not shown)
Outgoing: 98

Incoming: GET /values?readout=inhibition at 6 µM&system=human RORγt LBD (Homo sapiens)&item= Cn1cncc1C(O)(c1ccc(C(F)(F)F)nc1)c1ccc2nc(C(F)(F)F)c(-c3ccccc3)c(Cl)c2c1 (stereo not shown)
Outgoing: 96

Incoming: GET /values?readout=inhibition at 6 µM&system=human RORγt LBD (Homo sapiens)&item= CCCCc1c(-c2ccccc2)c(Cl)nc2ccc(C(O)(c3ccncc3)c3cncn3C)cc12 (stereo not shown)
Outgoing: 92

Incoming: GET /values?readout=inhibition at 6 µM&system=human RORγt LBD (Homo sapiens)&item= `OC(c1cccnc1)(c1cccnc1)c1ccc2nc(Cl)c(-c3ccccc3)c(Cl)c2c1`
Outgoing: 104

Incoming: GET /values?readout=inhibition at 6 µM&system=human RORγt LBD (Homo sapiens)&item= COC1CCN(c2nc3ccc(C(O)(c4ccncc4)c4cncn4C)cc3c(Cl)c2-c2ccccc2)CC1 (stereo not shown)
Outgoing: 88

Incoming: GET /values?readout=inhibition at 6 µM&system=human RORγt LBD (Homo sapiens)&item= COc1c(-c2ccccc2)c(N(C)C)nc2ccc(C(O)(c3ccncc3)c3cncn3C)cc12 (stereo not shown)
Outgoing: 101

Incoming: GET /values?readout=inhibition at 6 µM&system=human RORγt LBD (Homo sapiens)&item= CCc1nc2ccc(C(O)(c3ccncc3)c3cncn3C)cc2c(CC)c1-c1ccccc1 (stereo not shown)
Outgoing: 100

Incoming: GET /values?readout=inhibition at 6 µM&system=human RORγt LBD (Homo sapiens)&item= COc1ccc(C(O)(c2cccnc2)c2ccc3ncc(-c4ccccc4)c(Cl)c3c2)cc1 (stereo not shown)
Outgoing: 37

Incoming: GET /values?readout=inhibition at 6 µM&system=human RORγt LBD (Homo sapiens)&item= Cn1cncc1C(O)(c1ccc2nc(C(F)(F)F)c(-c3ccccc3)c(C(F)(F)F)c2c1)c1ccccn1 (single isomer, unassigned) [Example 185b]
Outgoing: 103

Incoming: GET /values?readout=inhibition at 6 µM&system=human RORγt LBD (Homo sapiens)&item= OC(c1cccnc1)(c1cccc(Cl)c1)c1ccc2ncc(-c3ccccc3)c(Cl)c2c1 (stereo not shown)
Outgoing: 80

Incoming: GET /values?readout=inhibition at 6 µM&system=human RORγt LBD (Homo sapiens)&item= CCN(CC)c1nc2ccc(C(O)(c3cccnc3)c3cccc(Cl)c3)cc2c(C#N)c1-c1ccccc1 (stereo not shown)
Outgoing: 101

Incoming: GET /values?readout=inhibition at 6 µM&system=human RORγt LBD (Homo sapiens)&item= COc1nc2c(C)cc(C(O)(c3ccc(C(F)(F)F)nc3)c3cncn3C)cc2c(Cl)c1-c1cccc(F)c1 (single isomer, unassigned) [Example 177b]
Outgoing: 83

Incoming: GET /values?readout=inhibition at 6 µM&system=human RORγt LBD (Homo sapiens)&item= CC(=O)N1CCC(C(O)(c2ccc3nc(C(F)(F)F)c(-c4ccccc4)c(C(F)(F)F)c3c2)c2cncn2C)CC1 (single isomer, unassigned) [Example 181b]
Outgoing: 99

Incoming: GET /values?readout=inhibition at 6 µM&system=human RORγt LBD (Homo sapiens)&item= CCN(CC)c1nc2ccc(C(O)(c3cccnc3)c3cccc(Cl)c3)cc2c(C)c1-c1ccccc1 (stereo not shown)
Outgoing: 85

Incoming: GET /values?readout=inhibition at 6 µM&system=human RORγt LBD (Homo sapiens)&item= Cn1cncc1C(O)(c1ccnnc1)c1ccc2nc(Cl)c(-c3ccccc3)c(Cl)c2c1 (stereo not shown)
Outgoing: 97

Incoming: GET /values?readout=inhibition at 6 µM&system=human RORγt LBD (Homo sapiens)&item= CN(C)c1nc2ccc(C(O)(c3ccc(F)cc3)c3cccnc3)cc2c(Cl)c1-c1ccccc1 (stereo not shown)
Outgoing: 98

Incoming: GET /values?readout=inhibition at 6 µM&system=human RORγt LBD (Homo sapiens)&item= Cc1cc(C(O)(c2ccc(C(F)(F)F)nc2)c2cncn2C)cc2c(C#N)c(-c3ccc(F)cc3)c(C#N)nc12 (single isomer, unassigned) [Example 184b]
Outgoing: 99

Incoming: GET /values?readout=inhibition at 6 µM&system=human RORγt LBD (Homo sapiens)&item= OC(c1cccnc1)(c1ccc2nc(Cl)c(-c3ccccc3)c(Cl)c2c1)c1ccccc1Cl (stereo not shown)
Outgoing: 99

Incoming: GET /values?readout=inhibition at 6 µM&system=human RORγt LBD (Homo sapiens)&item= Oc1ccc(C(O)(c2cccnc2)c2ccc3nc(Cl)c(-c4ccccc4)c(Cl)c3c2)cc1 (stereo not shown)
Outgoing: 95

Incoming: GET /values?readout=inhibition at 6 µM&system=human RORγt LBD (Homo sapiens)&item= OC(c1ccc(Cl)cc1)(c1cccnc1)c1ccc2nc(-c3cncnc3)c(-c3ccccc3)c(Cl)c2c1 (stereo not shown)
Outgoing: 97

Incoming: GET /values?readout=inhibition at 6 µM&system=human RORγt LBD (Homo sapiens)&item= OC(c1ccc(Cl)nc1)(c1cccc(Cl)c1)c1ccc2nc(Cl)c(-c3ccccc3)c(Cl)c2c1 (stereo not shown)
Outgoing: 91

Incoming: GET /values?readout=inhibition at 6 µM&system=human RORγt LBD (Homo sapiens)&item= Cc1cc(C(O)(c2ccc3nc(Cl)c(-c4ccccc4)c(Cl)c3c2)c2cncn2C)cc(Cl)n1 (stereo not shown)
Outgoing: 105

Incoming: GET /values?readout=inhibition at 6 µM&system=human RORγt LBD (Homo sapiens)&item= CN(C)c1nc2ccc(C(O)(c3cccnc3)c3ccccc3Cl)cc2c(Cl)c1-c1ccccc1 (stereo not shown)
Outgoing: 97

* * *

target: human RORγt LBD (Homo sapiens); construct: expressed in transfected cells; assay: RORγt reporter assay (GAL4-RORγt LBD luciferase in HEK293T cells); assay type: cell-based; settings: HEK-293T, read-out: RORγt reporter Assay, % inhibition @ 6 μM, HEK293T cells, 6 μM compound
For each of the compounds below, state its inhibition at 6 µM.
Enter your answer as a number in %; do not include the unit.

Incoming: # lookup: inhibition at 6 µM of CN(C)c1nc2ccc(C(O)(c3cccnc3)c3ccccn3)cc2c(Cl)c1-c1ccccc1 (stereo not drawn)
Outgoing: 99

Incoming: # lookup: inhibition at 6 µM of Cn1cncc1C(O)(c1ccc(F)nc1)c1ccc2nc(Cl)c(-c3ccccc3)c(Cl)c2c1 (stereo not drawn)
Outgoing: 103

Incoming: # lookup: inhibition at 6 µM of Cn1ccnc1C(O)(c1cncnc1)c1ccc2nc(Cl)c(-c3ccccc3)c(Cl)c2c1 (stereo not drawn)
Outgoing: 66

Incoming: # lookup: inhibition at 6 µM of COc1ccc(C(O)(c2cccnc2)c2ccc3nc(Cl)c(-c4ccccc4)c(Cl)c3c2)cc1 (stereo not drawn)
Outgoing: 92

Incoming: # lookup: inhibition at 6 µM of Cc1noc(C)c1C(O)(c1ccc(Cl)cc1)c1ccc2nc(Cl)c(-c3ccccc3)c(Cl)c2c1 (stereo not drawn)
Outgoing: 41

Incoming: # lookup: inhibition at 6 µM of Cn1cncc1C(O)(c1ccc(C(F)(F)F)nc1)c1ccc2nc(C(F)(F)F)c(-c3ccccc3)c(C#N)c2c1 (racemic) [Example 173a]
Outgoing: 103

Incoming: # lookup: inhibition at 6 µM of N#Cc1nc2ccc(C(O)(c3ccc(C(N)=O)nc3)c3cccc(Cl)c3)cc2c(C#N)c1-c1ccccc1 (stereo not drawn)
Outgoing: 100

Incoming: # lookup: inhibition at 6 µM of CN(C)c1ccc(C(O)(c2ccc3nc(Cl)c(-c4ccccc4)c(Cl)c3c2)c2cncn2C)cn1 (stereo not drawn)
Outgoing: 75

Incoming: # lookup: inhibition at 6 µM of Cc1cc(C(O)(c2ccc(C(F)(F)F)nc2)c2cncn2C)cc2c(C#N)c(-c3cccc(F)c3)c(C#N)nc12 (single isomer, unassigned) [Example 176b]
Outgoing: 94

Incoming: # lookup: inhibition at 6 µM of CN(C)c1c(-c2ccccc2)c(Cl)nc2ccc(C(O)(c3cccnc3)c3ccccc3Cl)cc12 (stereo not drawn)
Outgoing: 75

Incoming: # lookup: inhibition at 6 µM of Cn1cncc1C(O)(c1ccnc(Cl)c1)c1ccc2nc(Cl)c(-c3ccccc3)c(Cl)c2c1 (stereo not drawn)
Outgoing: 105

Incoming: # lookup: inhibition at 6 µM of `CN(C)c1nc2ccc(C(O)(c3ccncc3)c3ccncc3)cc2c(Cl)c1-c1ccccc1`
Outgoing: 91

Incoming: # lookup: inhibition at 6 µM of Cn1cncc1C(O)(c1ccc(Cl)cc1)c1ccc2nc(Cl)c(-c3ccccc3Cl)c(Cl)c2c1 (racemic) [Example 153a]
Outgoing: 96

Incoming: # lookup: inhibition at 6 µM of COc1nc2c(C)cc(C(O)(c3ccc(C(F)(F)F)nc3)c3cncn3C)cc2c(C#N)c1-c1cccc(F)c1 (single isomer, unassigned) [Example 179b]
Outgoing: 98

Incoming: # lookup: inhibition at 6 µM of COCCCn1cncc1C(O)(c1ccc(Cl)cc1)c1ccc2nc(Cl)c(-c3ccccc3)c(Cl)c2c1 (stereo not drawn)
Outgoing: 97

Incoming: # lookup: inhibition at 6 µM of CCN(C)c1nc2ccc(C(O)(c3ccncc3)c3cncn3C)cc2c(Cl)c1-c1ccccc1 (stereo not drawn)
Outgoing: 105

Incoming: # lookup: inhibition at 6 µM of Cc1cc(C(O)(c2ccc(F)cc2)c2cncn2C)cc2c(C#N)c(-c3cccc(F)c3)c(C#N)nc12 (single isomer, unassigned) [Example 175b]
Outgoing: 76

Incoming: # lookup: inhibition at 6 µM of CN(C)c1nc2ccc(C(O)(c3ccncc3)c3cncn3C)cc2c(O)c1-c1ccccc1 (stereo not drawn)
Outgoing: 90

Incoming: # lookup: inhibition at 6 µM of Cn1ccnc1C(O)(c1ccc2nc(Cl)c(-c3ccccc3)c(Cl)c2c1)c1cnccn1 (stereo not drawn)
Outgoing: 70

Incoming: # lookup: inhibition at 6 µM of `CN(C)c1nc2ccc(C(O)(c3cccnc3)c3cccnc3)cc2c(Cl)c1-c1ccccc1`
Outgoing: 100

Incoming: # lookup: inhibition at 6 µM of COc1cccc(C(O)(c2cccnc2)c2ccc3nc(Cl)c(-c4ccccc4)c(Cl)c3c2)c1 (stereo not drawn)
Outgoing: 97

Incoming: # lookup: inhibition at 6 µM of Cc1ncc(C(O)(c2ccc(Cl)cc2)c2ccc3nc(C#N)c(-c4ccccc4)c(Cl)c3c2)n1C (stereo not drawn)
Outgoing: 102

Incoming: # lookup: inhibition at 6 µM of CCN(CC)c1nc2ccc(C(O)(c3ccncc3)c3cncn3C)cc2c(C)c1-c1ccccc1 (stereo not drawn)
Outgoing: 104

Incoming: # lookup: inhibition at 6 µM of Cc1ccc(C(O)(c2ccc3nc(Cl)c(-c4ccccc4)c(Cl)c3c2)c2cncn2C)c(C)n1 (stereo not drawn)
Outgoing: 105

Incoming: # lookup: inhibition at 6 µM of OC(c1ccc(Cl)cc1)(c1cncnc1)c1ccc2nc(Cl)c(-c3ccccc3)c(Cl)c2c1 (stereo not drawn)
Outgoing: 100

Incoming: # lookup: inhibition at 6 µM of OC(c1ccc(F)cc1)(c1cccnc1)c1ccc2nc(Cl)c(-c3ccccc3)c(Cl)c2c1 (stereo not drawn)
Outgoing: 104

Incoming: # lookup: inhibition at 6 µM of CCOc1nc2ccc(C(O)(c3cccnc3)c3cccc(Cl)c3)cc2c(Cl)c1-c1ccccc1 (stereo not drawn)
Outgoing: 93

Incoming: # lookup: inhibition at 6 µM of CCOc1nc2ccc(C(O)(c3ccncc3)c3cncn3C)cc2c(N(C)C)c1-c1ccccc1 (stereo not drawn)
Outgoing: 100

Incoming: # lookup: inhibition at 6 µM of OC(c1ccccc1)(c1cccnc1)c1ccc2nc(C(F)(F)F)c(-c3ccccc3)c(C(F)(F)F)c2c1 (stereo not drawn)
Outgoing: 98

Incoming: # lookup: inhibition at 6 µM of OC(c1ccc(Cl)cc1)(c1cccnc1)c1ccc2nc(Cl)c(-c3ccccc3)c(Cl)c2c1 (stereo not drawn)
Outgoing: 102

Data origin: patent US9309222B2
